- SUBJECT OF TEST: UniProt:P10721
- Sequence (P10721 26-976): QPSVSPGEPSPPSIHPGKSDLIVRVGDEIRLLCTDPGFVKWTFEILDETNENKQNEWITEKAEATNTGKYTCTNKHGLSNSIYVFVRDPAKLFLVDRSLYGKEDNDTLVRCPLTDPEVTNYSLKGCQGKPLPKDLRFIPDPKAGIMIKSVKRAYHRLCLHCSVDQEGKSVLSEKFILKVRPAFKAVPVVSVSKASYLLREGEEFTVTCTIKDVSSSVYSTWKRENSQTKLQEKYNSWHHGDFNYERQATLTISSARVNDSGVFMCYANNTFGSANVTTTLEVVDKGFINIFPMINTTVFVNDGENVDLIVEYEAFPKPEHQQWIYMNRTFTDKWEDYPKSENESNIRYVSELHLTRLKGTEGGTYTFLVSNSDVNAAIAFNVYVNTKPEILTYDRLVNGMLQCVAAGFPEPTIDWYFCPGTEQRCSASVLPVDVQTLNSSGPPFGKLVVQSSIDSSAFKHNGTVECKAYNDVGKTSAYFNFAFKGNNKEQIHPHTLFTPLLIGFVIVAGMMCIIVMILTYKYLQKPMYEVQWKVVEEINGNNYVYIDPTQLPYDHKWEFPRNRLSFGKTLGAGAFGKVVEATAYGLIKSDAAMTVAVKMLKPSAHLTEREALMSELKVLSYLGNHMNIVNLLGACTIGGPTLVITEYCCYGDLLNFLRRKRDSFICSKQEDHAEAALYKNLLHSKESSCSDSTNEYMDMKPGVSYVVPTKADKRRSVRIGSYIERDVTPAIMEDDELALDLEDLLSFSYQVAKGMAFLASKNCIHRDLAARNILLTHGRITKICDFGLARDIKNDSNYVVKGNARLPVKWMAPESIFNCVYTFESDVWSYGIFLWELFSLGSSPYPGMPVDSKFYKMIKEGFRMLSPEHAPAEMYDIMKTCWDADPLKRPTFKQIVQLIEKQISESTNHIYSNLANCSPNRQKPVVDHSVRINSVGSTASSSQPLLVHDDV
pIC50: −log10 of the molar value.
OBSERVABLE: pIC50

- Cc1ccc(C(=O)Nc2ccc(C)c(Nc3nc(-c4cccnc4)cs3)c2)cc1: 7.11
- Cc1ccc(NC(=O)c2ccc(CN3CCN(C)CC3)c(O)c2)cc1Nc1nc(-c2cccnc2)cs1: 5.96
- Cc1ccc(NC(=O)c2ccc(CN3CCN(C)CC3)cc2O)cc1Nc1nc(-c2cccnc2)cs1: 6.63

----------
- Tested on: A549 cells
- SETTINGS: human, 1 µM
The following compounds are listed with their measured Doubling Time values.
OBSERVABLE: Doubling Time (h)

• Cc1ccc(NC(=O)c2ccc(CN3CCN(C)CC3)c(O)c2)cc1Nc1nc(-c2cccnc2)cs1 [M1] = 21.89
• Cc1ccc(C(=O)Nc2ccc(C)c(Nc3nc(-c4cccnc4)cs3)c2)cc1 [M3] = 21.49
• CC(=O)Nc1ccc(C)c(Nc2nc(-c3cccnc3)cs2)c1 [M4] = 21.47
• Cc1ccc(OC(=O)c2ccc(CN3CCN(C)CC3)cc2)cc1Nc1nc(-c2cccnc2)cs1 [M5] = 21.95
• Cc1ccc(NC(=O)c2ccc(CN3CCN(C)CC3)cc2O)cc1Nc1nc(-c2cccnc2)cs1 [M2] = 21.44
